# ASSAY: E. coli acrAB mutant growth effects, primary screen, E. coli filamentation inducers, strain DRC39, OD650, 24 h (AID 1178);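 note: growth measured as culture turbidity by optical density at 650 nm; test concentration not given here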
# PROTOCOL_CONDITIONS: higher = more signal, called active from +8 up or from −8 down
# label = yes (1) if z-score >= -0.5 else no (0)

| COMPOUND | ASSIGNED_CATEGORY |
| --- | --- |
| COC(=O)Cn1c(C(=O)N2CCCC2)cc2c1C[C@H]1CN(C(=O)c3ccccc3)[C@@](Cc3ccc(F)cc3)(C(=O)OC)[C@@H]21 | yes (1) |
| O=C1OCC=C[C@H]2OC34C=CCN(c5ccc(Cl)cc5)C(=O)[C@H]3N(CCCCCO)C(=O)[C@@H]4[C@@H]12 (some centres undefined) | yes (1) |
| Cc1ccc(F)cc1S(=O)(=O)N[C@@H]1CCN(Cc2ccc(Oc3ccccc3)cc2)C1 | no (0) |
| CN(C)C(=O)[C@@]1(Cc2ccccc2N=[N+]=[N-])COC(c2ccc(OCCCO)cc2)=N1 | yes (1) |
| C=C(C(=O)CC[C@H](OC(C)=O)c1cccc(OCCO)c1)C(C)C | no (0) |
| O=C(CS)NCCCCCCNC(=O)[C@H]1C[C@H]2C(=O)N[C@@H](Cc3ccccc3)C(=O)N2[C@H]1c1cccc(OCCO)c1 | yes (1) |
| C[n+]1ccc(CCCO)cc1 | no (0) |
| C=C[C@H](COC(C)=O)NS(=O)(=O)c1ccc(Br)cc1 | yes (1) |
| C=C[C@@H](COC(C)=O)NS(=O)(=O)c1ccc(Br)cc1 | no (0) |
| CCOC(=O)C1=C[C@@H](c2ccccc2)N(S(=O)(=O)c2ccc(C)cc2)[C@H]1c1cccc(Cl)c1 | no (0) |
| CC(C)(C)N1CC=CC23O[C@@H]4C=CCOC(=O)[C@@H]4[C@H]2C(=O)N(CCCO)[C@@H]3C1=O (some centres undefined) | no (0) |
| COCCCNC(=O)[C@@]1(Sc2ccc(C)cc2)CC(=O)N(Cc2cc(C(F)(F)F)cc(C(F)(F)F)c2)[C@@H]1c1ccc(CO)cc1 | yes (1) |
| NC(N)=NCc1cn(CCc2c[nH]c3ccccc23)nn1 | yes (1) |
